Every entry's value here was drawn from paper PMC3752001.

assayed_system: high sensitivity (HS) α4β2 nicotinic acetylcholine receptors (Homo sapiens, UniProt P17787+P43681)
method: Two-electrode voltage clamp, high sensitivity
Type: cell-based
measurement_parameters: IC50 (inhibition phase)
Where a name gives a salt, the structure may show the parent alone.
measurement_type: IC50 (µM)
Numeric answer only, unit µM assumed.

Please give measured IC50 of the following entry: C=CC(C)(C)c1[nH]c2cc(Br)ccc2c1CCNC [dFBr, Desformylflustrabromine · HCl]
50

====

assayed_system: low sensitivity (LS) α4β2 nicotinic acetylcholine receptors (Homo sapiens, UniProt P17787+P43681)
Sequence (P43681 27-627): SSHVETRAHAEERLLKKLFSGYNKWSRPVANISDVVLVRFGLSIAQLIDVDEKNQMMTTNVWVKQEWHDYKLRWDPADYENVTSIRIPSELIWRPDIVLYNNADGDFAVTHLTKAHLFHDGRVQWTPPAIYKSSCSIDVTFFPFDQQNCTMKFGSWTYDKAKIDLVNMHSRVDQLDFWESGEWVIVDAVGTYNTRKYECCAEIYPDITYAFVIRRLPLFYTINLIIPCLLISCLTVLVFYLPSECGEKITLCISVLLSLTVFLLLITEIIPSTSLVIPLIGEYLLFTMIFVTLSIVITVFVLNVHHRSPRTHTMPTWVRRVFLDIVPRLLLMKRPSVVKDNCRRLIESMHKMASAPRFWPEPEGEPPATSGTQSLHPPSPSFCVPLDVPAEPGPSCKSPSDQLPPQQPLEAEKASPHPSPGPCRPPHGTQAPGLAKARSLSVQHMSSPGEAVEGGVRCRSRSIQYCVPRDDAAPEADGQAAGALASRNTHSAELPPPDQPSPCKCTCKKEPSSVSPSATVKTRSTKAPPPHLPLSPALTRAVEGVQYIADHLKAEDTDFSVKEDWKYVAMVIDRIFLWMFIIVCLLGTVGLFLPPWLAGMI
Sequence (P17787 26-502): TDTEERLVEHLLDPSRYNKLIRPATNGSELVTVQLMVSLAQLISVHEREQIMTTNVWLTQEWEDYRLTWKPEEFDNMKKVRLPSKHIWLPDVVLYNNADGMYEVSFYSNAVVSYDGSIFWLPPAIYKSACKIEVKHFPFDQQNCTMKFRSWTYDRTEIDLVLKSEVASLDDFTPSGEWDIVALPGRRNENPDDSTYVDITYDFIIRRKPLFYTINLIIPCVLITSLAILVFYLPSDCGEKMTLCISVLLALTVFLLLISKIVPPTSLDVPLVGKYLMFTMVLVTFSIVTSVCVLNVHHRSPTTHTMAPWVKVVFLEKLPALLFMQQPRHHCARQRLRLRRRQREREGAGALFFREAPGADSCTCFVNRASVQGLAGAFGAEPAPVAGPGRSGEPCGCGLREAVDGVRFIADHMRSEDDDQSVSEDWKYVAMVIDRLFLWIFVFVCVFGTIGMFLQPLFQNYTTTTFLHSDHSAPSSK
method: Two-electrode voltage clamp, low sensitivity
Structures can show the parent of a compound that is named as a salt.
measurement_type: pIC50
The meaning of pIC50 here: minus log10 of the concentration in molar units.

Please give measured pIC50 of the following entry: C=CC(C)(C)c1[nH]c2cc(Br)ccc2c1CCNC [dFBr, Desformylflustrabromine · HCl]
5.20

====

// reported IC50 per item
assayed_system: high sensitivity (HS) α4β2 nicotinic acetylcholine receptors (Homo sapiens, UniProt P17787+P43681)
method: Two-electrode voltage clamp, high sensitivity
Format: cell-based
Counter-ions that a name gives are not always drawn.
Numeric answer only, unit µM assumed.

Please give measured IC50 of the following entry: C=CC(C)(C)c1[nH]c2cc(Br)ccc2c1CCNC [dFBr, Desformylflustrabromine · HCl]
79

Now for the compound whose IC50 we want.
Please give measured IC50 of the following entry: `O=S(=O)(O)CCN1CCN(CCO)CC1`
430

====

assayed_system: high sensitivity (HS) α4β2 nicotinic acetylcholine receptors (Homo sapiens, UniProt P17787+P43681)
method: Two-electrode voltage clamp, high sensitivity
Format: cell-based
measurement_parameters: EC50 (potentiation)
Where a name gives a salt, the structure may show the parent alone.
measurement_type: EC50
Include the unit after the number when you answer.

Please give measured EC50 of the following entry: C=CC(C)(C)c1[nH]c2cc(Br)ccc2c1CCNC [dFBr, Desformylflustrabromine · HCl]
2500 nM

====

assayed_system: low sensitivity (LS) α4β2 nicotinic acetylcholine receptors (Homo sapiens, UniProt P17787+P43681)
method: Two-electrode voltage clamp, low sensitivity
Assay type: cell-based
Where a name gives a salt, the structure may show the parent alone.
measurement_type: pEC50
The meaning of pEC50 here: minus log10 of the concentration in molar units.

Please give measured pEC50 of the following entry: C=CC(C)(C)c1[nH]c2cc(Br)ccc2c1CCNC [dFBr, Desformylflustrabromine · HCl]
5.89
